target: UniProt P41594; test: Cell-based functional assay: Ca2+ mobilization (FDSS), potentiation of glutamate EC20 response; details: HEK cells transfected with human mGluR5 (H10H or H12H cell line); positive allosteric modulation in presence of glutamate EC20
Sequence (P41594 21-1180 isoform P41594-2 limits assumed): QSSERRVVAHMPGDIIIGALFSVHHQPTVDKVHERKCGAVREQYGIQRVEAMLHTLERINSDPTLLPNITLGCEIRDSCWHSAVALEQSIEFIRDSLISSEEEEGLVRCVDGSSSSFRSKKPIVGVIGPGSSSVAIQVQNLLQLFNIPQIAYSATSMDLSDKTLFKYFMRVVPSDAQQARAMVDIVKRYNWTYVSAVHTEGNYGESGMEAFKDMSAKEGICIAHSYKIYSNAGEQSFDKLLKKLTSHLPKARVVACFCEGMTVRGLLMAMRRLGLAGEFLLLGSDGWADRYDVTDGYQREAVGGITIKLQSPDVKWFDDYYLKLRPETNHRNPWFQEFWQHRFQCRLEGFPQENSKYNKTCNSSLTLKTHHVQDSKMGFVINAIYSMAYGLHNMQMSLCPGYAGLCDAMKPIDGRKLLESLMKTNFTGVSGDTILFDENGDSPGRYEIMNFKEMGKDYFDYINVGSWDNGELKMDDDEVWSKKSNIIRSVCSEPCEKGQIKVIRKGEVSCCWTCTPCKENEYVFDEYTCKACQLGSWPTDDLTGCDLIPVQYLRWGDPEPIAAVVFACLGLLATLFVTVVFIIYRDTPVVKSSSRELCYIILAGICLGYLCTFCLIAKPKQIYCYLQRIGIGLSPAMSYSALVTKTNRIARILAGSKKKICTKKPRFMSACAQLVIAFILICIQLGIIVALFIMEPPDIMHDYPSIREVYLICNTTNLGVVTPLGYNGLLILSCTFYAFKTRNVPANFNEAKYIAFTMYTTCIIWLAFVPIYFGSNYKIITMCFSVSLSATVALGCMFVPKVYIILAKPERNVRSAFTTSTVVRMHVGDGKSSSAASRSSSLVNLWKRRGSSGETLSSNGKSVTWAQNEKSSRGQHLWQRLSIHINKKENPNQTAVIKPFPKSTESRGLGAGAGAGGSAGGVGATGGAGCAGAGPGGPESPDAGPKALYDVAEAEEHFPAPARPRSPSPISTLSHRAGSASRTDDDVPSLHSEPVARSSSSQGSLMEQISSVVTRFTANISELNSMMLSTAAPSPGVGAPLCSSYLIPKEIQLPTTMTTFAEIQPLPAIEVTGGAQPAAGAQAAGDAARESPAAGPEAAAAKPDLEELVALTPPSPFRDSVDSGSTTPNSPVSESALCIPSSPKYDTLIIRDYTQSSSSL
observable: EC50

Qu. Please indicate EC50 recorded for CC(C)(C)OC(=O)N1CCc2ncc(OCc3cccc(F)c3)cc2C1
Ans. > 30000 nM

Qu. Please indicate EC50 recorded for O=C(C1CC1)N1CCc2ncc(OCc3cccc(F)c3)cc2C1
Ans. > 30000 nM

Qu. Please indicate EC50 recorded for O=C(c1cccc(F)c1)N1CCc2ncc(OCc3cccc(F)c3)cc2C1
Ans. > 30000 nM

Qu. Please indicate EC50 recorded for O=C(c1ccc(F)cc1)N1CCc2ncc(COc3ccc(F)cc3)cc2C1
Ans. 910 nM

Qu. Please indicate EC50 recorded for O=C(c1ccc(F)cc1)N1CCc2ncc(COc3cccc(F)c3)cc2C1
Ans. 690 nM

Qu. Please indicate EC50 recorded for O=C(c1ccc(F)cc1)N1CCc2ncc(COc3ccccc3)cc2C1
Ans. 380 nM
